# test.summary: protein stability index of a GFP-peptide fusion (yeast GPS) (PSI 1-4); higher = more stable; sorted into four equal gates, so the index is relative within each strain
# reported.conditions: san1∆
Recorded protein stability index by entry

Previously resolved entries follow.
In [3]: df
Out[3]:
                      sequence_data  result
0  FNTNSSFTPSTVPNINF [YOR098C/NUP1]    2.54
1          GGDTCSSDGALCMDSSY [POP1]    1.83
2         FISAARYKPKSHLWEID [RPC37]    2.71
3          KLNKVDKNELQQMIITR [SIR3]    3.28
4          NYYYLFDKKSFFNGKAL [PRP8]    2.91

Query: For the sequence shown here, TDLSGKETIARVTGGMK [RPS14A] , give the reported protein stability index.
Response: 2.79

Query: For the sequence shown here, ELTLAEQQVKEAEMAYV [SMC4] , give the reported protein stability index.
Response: 2.81

Query: For the sequence shown here, DDSANIVNVNFMKSVIR [DIS3] , give the reported protein stability index.
Response: 3.06

Query: For the sequence shown here, KPSLVDVHLLESKVYHK [RPN6] , give the reported protein stability index.
Response: 1.77

Query: For the sequence shown here, FTNELKAELDRYKRENQ [SEM1] , give the reported protein stability index.
Response: 2.98

Query: For the sequence shown here, ISQVSSIHAIGSIKEDY [RPB7] , give the reported protein stability index.
Response: 2.32

Query: For the sequence shown here, SSFEENNDLESVSMLLQ [RRI2] , give the reported protein stability index.
Response: 3

Query: For the sequence shown here, SKTVVTLSEPVQGELKP [FAS1] , give the reported protein stability index.
Response: 2.5

====

# test.summary: protein stability index of a GFP-peptide fusion (yeast GPS) (PSI 1-4); higher = more stable; sorted into four equal gates, so the index is relative within each strain
# reported.conditions: pdr5∆
measured.attribute: protein stability index
The answer should be a number; do not append a unit.

>>> print(df.to_string())
                      sequence_data  numeric_value
0  RRIKEAEENLKKRIRLP [YIL149C/MLP2]           2.23
1          ERTKQRTAKAYLKVSEE [PRP8]           3.12
2         REGLIDTAVKTAETGYI [RPO21]           1.37

Query: For the sequence shown here, PQQNKTPFSFGTANNNS [YJL041W/NSP1] , give the reported protein stability index.
Response: 3.2

Query: For the sequence shown here, IRKFFGLSKEDDVRDFV [RPS6A] , give the reported protein stability index.
Response: 3.35

Query: For the sequence shown here, NQNFSLTFQPQQQTNAL [GRR1] , give the reported protein stability index.
Response: 3.2

Query: For the sequence shown here, EDGTSASFQIVEEDHTL [RPC19] , give the reported protein stability index.
Response: 3.69

Query: For the sequence shown here, SEIKQQINKAQILENYN [YJL039C/NUP192] , give the reported protein stability index.
Response: 3.17

====

Recorded protein stability index by entry
# test.summary: protein stability index of a GFP-peptide fusion (yeast GPS) (PSI 1-4); higher = more stable; sorted into four equal gates, so the index is relative within each strain
# reported.conditions: ubr1∆
The answer should be a number; do not append a unit.

In [3]: df
Out[3]:
               sequence_data       measured_attribute  numeric_value
0  NAKIIDAEVAQFLEQGL [SRP68]  protein stability index           3.08
1   LGILKKKRFDEFMAGFN [SMC4]  protein stability index           1.87
2   SLLDKPDEAIEKVFNAY [FAS1]  protein stability index           3.29

Query: For the sequence shown here, SYKDSGLWGFSTATRNV [COR1] , give the reported protein stability index.
Response: 3.16

Query: For the sequence shown here, KEEISDQKPIEHIKEGS [SWI3] , give the reported protein stability index.
Response: 3
